target: UniProt P12931
Sequence (P12931 2-536 limits assumed): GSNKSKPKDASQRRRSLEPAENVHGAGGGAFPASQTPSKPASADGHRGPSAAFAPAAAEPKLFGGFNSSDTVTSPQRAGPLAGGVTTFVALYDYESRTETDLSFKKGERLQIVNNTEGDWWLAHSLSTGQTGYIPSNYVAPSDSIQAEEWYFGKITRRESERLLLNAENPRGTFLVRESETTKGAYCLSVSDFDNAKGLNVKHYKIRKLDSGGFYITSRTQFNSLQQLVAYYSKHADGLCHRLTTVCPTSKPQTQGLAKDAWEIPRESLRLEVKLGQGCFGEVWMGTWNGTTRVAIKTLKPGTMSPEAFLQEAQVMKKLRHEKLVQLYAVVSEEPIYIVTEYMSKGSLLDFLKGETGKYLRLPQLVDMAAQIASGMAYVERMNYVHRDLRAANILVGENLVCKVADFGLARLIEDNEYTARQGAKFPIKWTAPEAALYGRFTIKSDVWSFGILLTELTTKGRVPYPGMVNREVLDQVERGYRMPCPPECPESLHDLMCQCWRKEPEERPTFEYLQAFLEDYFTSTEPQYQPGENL
value_type: IC50 (nM)
Return type: number; implicit unit nM.

Could you share what IC50 was measured for COc1cc(Nc2c(C#N)cnc3cc(-c4coc(CN5CCN(C)CC5)c4)c(OC)cc23)c(Cl)cc1Cl , tested on UniProt P12931? 0.78

----------
target: RAC-alpha serine/threonine-protein kinase (Homo sapiens)
Sequence (P31749 whole entry): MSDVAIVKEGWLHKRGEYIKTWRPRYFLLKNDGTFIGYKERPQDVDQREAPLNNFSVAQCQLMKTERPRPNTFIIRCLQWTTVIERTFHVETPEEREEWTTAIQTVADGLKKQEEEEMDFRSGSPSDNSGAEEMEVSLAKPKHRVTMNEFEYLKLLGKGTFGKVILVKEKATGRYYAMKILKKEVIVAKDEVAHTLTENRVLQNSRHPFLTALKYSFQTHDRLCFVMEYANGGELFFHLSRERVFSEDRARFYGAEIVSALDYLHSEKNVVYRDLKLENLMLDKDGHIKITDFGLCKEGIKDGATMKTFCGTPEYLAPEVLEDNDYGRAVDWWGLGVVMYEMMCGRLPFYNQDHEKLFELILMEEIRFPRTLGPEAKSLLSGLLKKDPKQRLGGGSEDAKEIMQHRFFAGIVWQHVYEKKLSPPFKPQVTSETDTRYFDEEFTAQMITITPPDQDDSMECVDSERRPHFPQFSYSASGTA
pIC50: −log10 of the molar value.
value_type: pIC50

Could you share what pIC50 was measured for COc1cc(Nc2c(C#N)cnc3cc(-c4coc(CN5CCN(C)CC5)c4)c(OC)cc23)c(Cl)cc1Cl , tested on RAC-alpha serine/threonine-protein kinase (Homo sapiens)? < 6.00

----------
assay: Permeability by PAMPA assay; type: ADME; conditions: read-out: permeability
value_type: Papp (×10⁻⁶ cm/s)
Return type: number; implicit unit ×10⁻⁶ cm/s.

For the molecule COc1cc(Nc2c(C#N)cnc3cc(-c4coc(CN5CCN(C)CC5)c4)c(OC)cc23)c(Cl)cc1Cl , what Papp is on record? 2

----------
experiment: Plasma concentration in nude mouse after 4 hrs at 50 mg/kg, po; type: ADME, organism-based; parameters: dose 50 mg/kg, route oral
value_type: concentration at 4 h (ng/mL)
Return type: number; implicit unit ng/mL.

For the compound COc1cc(Nc2c(C#N)cnc3cc(-c4coc(CN5CCN(C)CC5)c4)c(OC)cc23)c(Cl)cc1Cl , what concentration at 4 h is on record? 1140

----------
test: Plasma concentration in nude mouse after 24 hrs at 50 mg/kg, po; type: ADME, organism-based; set-up: dose 50 mg/kg, route oral
value_type: concentration at 24 h (ng/mL)
Return type: number; implicit unit ng/mL.

For the molecule COc1cc(Nc2c(C#N)cnc3cc(-c4coc(CN5CCN(C)CC5)c4)c(OC)cc23)c(Cl)cc1Cl , what concentration at 24 h is on record? 103

----------
experiment: Stability in rat liver microsomes after 30 min; assay type: ADME, Microsome; details: read-out: Stability
value_type: remaining at 0.5 h (%)
Return type: number; implicit unit %.

For the compound COc1cc(Nc2c(C#N)cnc3cc(-c4coc(CN5CCN(C)CC5)c4)c(OC)cc23)c(Cl)cc1Cl , what remaining at 0.5 h is on record? 72

----------
test: Solubility at pH 4.5; format: physicochemical; details: buffer
value_type: solubility (µg/mL)
Return type: number; implicit unit µg/mL.

For the molecule COc1cc(Nc2c(C#N)cnc3cc(-c4coc(CN5CCN(C)CC5)c4)c(OC)cc23)c(Cl)cc1Cl , what solubility is on record? 63

----------
assay: Stability in nude mouse liver microsomes; type: ADME, Microsome
value_type: half-life (min)
Return type: number; implicit unit min.

For the molecule COc1cc(Nc2c(C#N)cnc3cc(-c4coc(CN5CCN(C)CC5)c4)c(OC)cc23)c(Cl)cc1Cl , what half-life is on record? 32

----------
assay: Plasma concentration in nude mouse after 8 hrs at 50 mg/kg, po; type: ADME, organism-based; parameters: dose 50 mg/kg, route oral
value_type: concentration at 8 h
Write your answer as a measured quantity: the number, then the unit.

For the compound COc1cc(Nc2c(C#N)cnc3cc(-c4coc(CN5CCN(C)CC5)c4)c(OC)cc23)c(Cl)cc1Cl , what concentration at 8 h is on record? 1030 ng/mL
